# Experiment summary: Blood-brain barrier assay of Compound A (plasma and brain concentration, PK)
# Type: in vivo, CD-1 mice
# Recorded conditions: CD-1, mouse, brain, iv, 1 mg/kg, IV 1 mg/kg; 1 h; individual animals; read-out: Brain concentration
Measure name: concentration at 1 h (ng/g)
Output spec: scalar in ng/g, unitless text.

What value of concentration at 1 h has been recorded for this entry: O=[N+]([O-])c1ccc(C(OP(=O)(N2CC2)N2CC2)C(F)(F)F)cc1Oc1ccc(-c2ccc(F)cc2)c(F)c1 (racemic) [Compound A] 180

###

# Experiment summary: Blood-brain barrier assay of Compound A (plasma and brain concentration, PK)
# Assay type: in vivo, CD-1 mice
# Recorded conditions: CD-1, mouse, brain/plasma, iv, 1 mg/kg, IV 1 mg/kg; 1 h; mean of 3 animals; read-out: Ratio (Brain/Plasma), Mean
Measure name: Kp at 1 h
// no unit, no text: just the number

What value of Kp at 1 h has been recorded for this entry: O=[N+]([O-])c1ccc(C(OP(=O)(N2CC2)N2CC2)C(F)(F)F)cc1Oc1ccc(-c2ccc(F)cc2)c(F)c1 (racemic) 0.76

From: patent US20260159536A1
